- STUDY_SYSTEM: PU.1 (human, UniProt P17947 1-270)
- MEASUREMENT_DESCRIPTION: MST; MST: 20 mM Tris-HCl pH 7.6, 1.5 mM MgCl2, 0.5 mM EGTA, 10% glycerol, 300 mM KCl, 10 mM DTT, 25 C; 50 nM Cy3-dsDNA, PU.1 1:1 dilutions from 23 uM
- TEST_CONDITIONS: protein: recombinant; tags: N-terminal His-tag; label: Cy3 on upper strand
pKd: −log10 of the molar value.
pKd below 6 gives n; pKd at or above it gives y.

binder="PU.1 motif oligo 18 (dsDNA) DNA 1: ACGTCACTTCCTCAACACGT DNA 2: ACGTGTTGAGGAAGTGACGT" discrete_label=y
binder="PU.1 motif oligo 26 (dsDNA) DNA 1: ACGTAAGTTCCTCATTACGT DNA 2: ACGTAATGAGGAACTTACGT" discrete_label=y
binder="PU.1 motif oligo 53 (dsDNA) DNA 1: ACGTCACTTCCATTCTACGT DNA 2: ACGTAGAATGGAAGTGACGT" discrete_label=n
binder="PU.1 motif oligo 28 (dsDNA) DNA 1: ACGTTACTTCCTTTTAACGT DNA 2: ACGTTAAAAGGAAGTAACGT" discrete_label=y
